meta.source: patent US8592403B2

Test: In vitro metabolism rate determination, human liver microsome (HLM) assay
Assay type: in vitro ADME
Settings: human, liver microsomes, read-out: HLM: Clint, app
Criterion: microsomal CLint at 1 μM strictly less than 20 µL/min/mg. Met: satisfied. Not met: not satisfied.

Below, 3 molecules whose answers are already recorded.
INSERT INTO measurements (molecule, class_label) VALUES
  ('CCC(=O)N1CCN(C(=O)[C@@H]2CN(C(C)(C)C)C[C@H]2c2ccc(F)cc2F)CCC[C@H]1c1ccc(Cl)cc1 [Example 10]', 'not satisfied'),
  ('CCC(=O)N1CCN(C(=O)[C@@H]2CN(c3ccc(=O)n(C)n3)C[C@H]2c2ccc(OC)cc2F)CCC[C@H]1c1ccc(Cl)cc1 [Example 28]', 'not satisfied'),
  ('COC(=O)N1CCN(C(=O)[C@@H]2CN(c3ccc(=O)n(C)n3)C[C@H]2c2ccc(F)cc2F)CCCC1c1ccc(Cl)cc1 (mixture of isomers) [Example 80]', 'satisfied');

Now, please, on to the next molecule.
Consider COC(=O)N1CCN(C(=O)[C@@H]2CN(c3ccc(=O)[nH]n3)C[C@H]2c2ccc(OC)cc2F)CCCC1c1ccc(Cl)cc1 (mixture of isomers) [Example 112] . Does its microsomal CLint at 1 μM lie strictly below 20 µL/min/mg? satisfied

====

Target: MC4 receptor (Homo sapiens, UniProt P32245)
Test: MC4 EC50 functional potency (protocol E of US2005/0176772 / WO 2005/077935)
Assay type: cell-based
pEC50: −log10 of the molar value.
pEC50 of 8 or higher: 1. Under 8: -1.

Below, 2 molecules whose answers are already recorded.
INSERT INTO measurements (molecule, class_label) VALUES
  ('COc1ccc([C@@H]2CN(c3ccc(=O)n(C)n3)C[C@H]2C(=O)N2CCC[C@@H](c3ccc(Cl)cc3)N(C(C)=O)CC2)c(F)c1', 1),
  ('COC(=O)N1CCN(C(=O)[C@@H]2CN(C(C)(C)C)C[C@H]2c2ccc(OC)cc2F)CCCC1c1ccc(Cl)cc1 (some centres unmarked)', -1);

Given the entry CC(=O)N1CCN(C(=O)[C@@H]2CN(c3cccnn3)C[C@H]2c2ccc(F)cc2F)CCC1c1ccccc1 (mixture of isomers) , answer whether its pEC50 meets or surpasses 8. -1

Given the entry `COC(=O)N1CCN(C(=O)[C@@H]2CN(c3ccc(C#N)nn3)C[C@H]2c2ccc(F)cc2F)CCC[C@H]1c1ccc(Cl)cc1` , answer whether its pEC50 meets or surpasses 8. 1

Given the entry COC(=O)N1CCN(C(=O)[C@@H]2CN(c3ccc(=O)[nH]n3)C[C@H]2c2ccc(OC)cc2F)CCCC1c1ccc(Cl)cc1 (mixture of isomers) , answer whether its pEC50 meets or surpasses 8. 1

Given the entry `CC(=O)N1CCN(C(=O)[C@@H]2CN(c3ccc(C#N)nn3)C[C@H]2c2ccc(Cl)cn2)CCC[C@H]1c1ccc(Cl)cc1` , answer whether its pEC50 meets or surpasses 8. -1

Given the entry `CC1(C(=O)N2CCN(C(=O)[C@@H]3CN(C(C)(C)C)C[C@H]3c3ccc(F)cc3F)CCC[C@H]2c2ccc(Cl)cc2)CC1` , answer whether its pEC50 meets or surpasses 8. 1

Given the entry `COC(=O)N1CCN(C(=O)[C@@H]2CN(c3ccc(C#N)nn3)C[C@H]2c2ccc(OC)cc2F)CCC[C@@H]1c1ccc(Cl)cc1` , answer whether its pEC50 meets or surpasses 8. 1

====

Recorded measurements of Ki, one per entry
Target: MC3 receptor (MC3R) (Homo sapiens)
Sequence (P41968 whole entry): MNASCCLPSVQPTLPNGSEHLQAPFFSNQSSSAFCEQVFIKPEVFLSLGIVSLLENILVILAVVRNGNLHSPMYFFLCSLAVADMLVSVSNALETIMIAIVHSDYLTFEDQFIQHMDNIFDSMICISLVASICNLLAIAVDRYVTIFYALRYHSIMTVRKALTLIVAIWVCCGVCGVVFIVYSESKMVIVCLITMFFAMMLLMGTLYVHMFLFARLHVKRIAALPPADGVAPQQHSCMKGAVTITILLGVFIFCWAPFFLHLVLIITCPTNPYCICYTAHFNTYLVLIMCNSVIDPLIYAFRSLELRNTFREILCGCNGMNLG
Answer in µM, number only, no unit symbol.

Please review the following examples before continuing.
INSERT INTO measurements (compound, readout_value) VALUES
  ('COC(=O)N1CCN(C(=O)[C@@H]2CN(c3ccc(=O)n(C)n3)C[C@H]2c2ccc(F)cc2F)CCC[C@@H]1c1ccc(Cl)cc1', 0.187),
  ('COc1ccc([C@@H]2CN(c3ccc(=O)n(C)n3)C[C@H]2C(=O)N2CCCC(c3ccc(Cl)cc3)N(S(C)(=O)=O)CC2)c(F)c1 (single isomer, unassigned)', 1.15),
  ('CS(=O)(=O)N1CCN(C(=O)[C@@H]2CN(c3ccc(C#N)nn3)C[C@H]2c2ccc(Cl)cn2)CCC[C@H]1c1ccc(Cl)cc1', 0.545),
  ('COC(=O)N1CCN(C(=O)[C@@H]2CN(C(C)(C)C)C[C@H]2c2ccc(OC)cc2F)CCC[C@H]1c1ccc(Cl)cc1', 10.3),
  ('CC(=O)N1CCN(C(=O)[C@@H]2CN(c3ccc(C#N)nn3)C[C@H]2c2ccc(Cl)cn2)CCC[C@H]1c1ccc(Cl)cc1', 0.141);

The compound COC(=O)N1CCN(C(=O)[C@@H]2CN(c3ccc(C#N)nn3)CC2c2ccc(OC)cc2F)CCCC1c1ccc(Cl)cc1 (stereo in doubt) , tested on MC3 receptor (MC3R) (Homo sapiens), showed Ki of 0.25

The compound CS(=O)(=O)N1CCN(C(=O)C2CN(c3ccc(=O)[nH]n3)CC2c2ccc(F)cc2F)CCCC1c1ccc(F)cc1 (stereo not shown) , tested on MC3 receptor (MC3R) (Homo sapiens), showed Ki of 3.22

====

Assay: In vitro metabolism rate determination, human liver microsome (HLM) assay
Type: in vitro ADME
Settings: human, liver microsomes, read-out: HLM: Clint, app
Protocol: In Vitro Metabolism Rate Determination (Human Liver Microsome (HLM); Rat Liver Microsome (RLM) Assay) Many drugs are metabolised by the cytochrome P450 mono-oxygenase system. […] 6. […] The volume of substrate required in the remaining 1.162.5 ml incubation is calculated as follows: […] Data obtained using the procedure described above can be quantified in terms of the substrates in vitro intrinsic clearance (Clint). […]
Experimental Endpoint: microsomal CLint at 1 μM (µL/min/mg)
Answer in µL/min/mg, number only, no unit symbol.

microsomal CLint at 1 μM for COC(=O)N1CCN(C(=O)[C@@H]2CN(c3cccnn3)C[C@H]2c2ccc(F)cc2F)CCC1c1ccccc1 (mixture of isomers) is 86

microsomal CLint at 1 μM for `COC(=O)N1CCN(C(=O)[C@@H]2CN(c3ccc4nncn4n3)C[C@H]2c2ccc(F)cc2F)CCC[C@H]1c1ccc(Cl)cc1` is 31.3

microsomal CLint at 1 μM for COC(=O)N1CCN(C(=O)[C@@H]2CN(C(C)(C)C)C[C@H]2c2ccc(F)cc2F)CCCC1c1ccccc1 (mixture of isomers) is 66

microsomal CLint at 1 μM for `CC(C)C(=O)N1CCN(C(=O)[C@@H]2CN(C(C)(C)C)C[C@H]2c2ccc(F)cc2F)CCC[C@H]1c1ccc(Cl)cc1` is 23.6

microsomal CLint at 1 μM for `CCCC(=O)N1CCN(C(=O)[C@@H]2CN(C(C)(C)C)C[C@H]2c2ccc(F)cc2F)CCC[C@H]1c1ccc(Cl)cc1` is 37.8

====

Recorded measurements of pKi, one per entry
Biological target: MC4 receptor (MC4R) (Homo sapiens, UniProt P32245)
Sequence (P32245 whole entry): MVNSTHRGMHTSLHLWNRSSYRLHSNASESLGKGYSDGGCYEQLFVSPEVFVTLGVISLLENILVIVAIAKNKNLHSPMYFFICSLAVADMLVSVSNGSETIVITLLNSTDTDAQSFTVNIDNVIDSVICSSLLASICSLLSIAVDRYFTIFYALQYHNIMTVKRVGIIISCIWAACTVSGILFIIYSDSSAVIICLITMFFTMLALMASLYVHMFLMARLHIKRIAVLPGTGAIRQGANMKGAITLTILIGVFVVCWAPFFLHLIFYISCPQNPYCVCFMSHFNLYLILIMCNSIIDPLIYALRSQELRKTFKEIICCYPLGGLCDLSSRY
FYI, pKi means -log10 of a concentration in mol per litre.

Please review the following examples before continuing.
INSERT INTO assay_data (compound, experimental_endpoint, readout_value) VALUES
  ('COC(=O)N1CCN(C(=O)[C@@H]2CN(c3ccc(C#N)nn3)CC2c2ccc(OC)cc2F)CCCC1c1ccc(Cl)cc1 (stereo in doubt)', 'pKi', 7.55),
  ('COC(=O)N1CCN(C(=O)[C@@H]2CN(c3ccc(C#N)nn3)C[C@H]2c2ccc(Cl)cn2)CCC[C@H]1c1ccc(Cl)cc1', 'pKi', 7.28);

// next item, pKi requested
The compound CS(=O)(=O)N1CCN(C(=O)[C@@H]2CN(c3ccc(C#N)nn3)C[C@H]2c2ccc(C#N)cc2)CCCC1c1ccc(Cl)cc1 (mixture of isomers) , tested on MC4 receptor (MC4R) (Homo sapiens, UniProt P32245), showed pKi of 6.03

====

Target: human MC3 receptors (Homo sapiens)
Construct: stably transfected with full length cDNA encoding human MC1 or MC3 receptors
Sequence (P41968 whole entry): as the sequence (P41968 whole entry) above
Assay: In vitro agonist potency (EC50) at melanocortin receptor type 3, cAMP in recombinant cell line
Recorded measurements of pEC50, one per entry
FYI, pEC50 means -log10 of a concentration in mol per litre.

Please review the following examples before continuing.
INSERT INTO assay_data (molecule, experimental_endpoint, readout_value) VALUES
  ('CS(=O)(=O)N1CCN(C(=O)[C@@H]2CN(c3ccc(C#N)nn3)C[C@H]2c2ccc(F)cc2F)CCCC1c1ccc(Cl)cc1 (mixture of isomers)', 'pEC50', 6.22),
  ('CC(C)(C)C(=O)N1CCN(C(=O)[C@@H]2CN(C(C)(C)C)C[C@H]2c2ccc(F)cc2F)CCC[C@H]1c1ccc(Cl)cc1', 'pEC50', 5.50),
  ('COC(=O)N1CCN(C(=O)[C@@H]2CN(c3ccc(=O)n(C)n3)C[C@H]2c2ccc(F)cc2F)CCC[C@@H]1c1ccc(Cl)cc1', 'pEC50', 5.91),
  ('CCCC(=O)N1CCN(C(=O)[C@@H]2CN(c3cccnn3)C[C@H]2c2ccc(F)cc2F)CCCC1c1ccccc1 (mixture of isomers)', 'pEC50', 6.94),
  ('CS(=O)(=O)N1CCN(C(=O)[C@@H]2CN(c3ccc(C#N)cn3)C[C@H]2c2ccc(F)cc2F)CCCC1c1ccccc1 (single isomer, unassigned) [Example 39]', 'pEC50', 6.03);

The molecule CS(=O)(=O)N1CCN(C(=O)[C@@H]2CN(c3ccc(=O)[nH]n3)C[C@H]2c2ccc(F)cc2F)CCCC1c1ccc(Cl)cc1 (mixture of isomers) , tested on human MC3 receptors (Homo sapiens), showed pEC50 of 5.74

The molecule CS(=O)(=O)N1CCN(C(=O)[C@@H]2CN(c3ccc(C#N)cn3)C[C@H]2c2ccc(F)cc2F)CCCC1c1ccccc1 (single isomer, unassigned) [Example 40] , tested on human MC3 receptors (Homo sapiens), showed pEC50 of 6.22

The molecule COc1ccc([C@@H]2CN(c3ccc(=O)n(C)n3)C[C@H]2C(=O)N2CCCC(c3ccc(Cl)cc3)N(S(C)(=O)=O)CC2)c(F)c1 (single isomer, unassigned) , tested on human MC3 receptors (Homo sapiens), showed pEC50 of 5.08

The molecule `CC(C)C(=O)N1CCN(C(=O)[C@@H]2CN(C(C)(C)C)C[C@H]2c2ccc(Cl)cn2)CCC[C@H]1c1ccc(Cl)cc1` , tested on human MC3 receptors (Homo sapiens), showed pEC50 of 5.78

The molecule `COC(=O)N1CCN(C(=O)[C@@H]2CN(c3ccc(=O)[nH]n3)C[C@H]2c2ccc(OC)cc2F)CCC[C@@H]1c1ccc(Cl)cc1` , tested on human MC3 receptors (Homo sapiens), showed pEC50 of 6.34

The molecule CS(=O)(=O)N1CCN(C(=O)[C@@H]2CN(c3cccnn3)C[C@H]2c2ccc(F)cc2F)CCCC1c1ccc(Cl)cc1 (mixture of isomers) , tested on human MC3 receptors (Homo sapiens), showed pEC50 of 5.18

The molecule `CC(C)(C)N1C[C@@H](C(=O)N2CCC[C@@H](c3ccc(Cl)cc3)N(C(=O)C3CCC3)CC2)[C@H](c2ccc(F)cc2F)C1` , tested on human MC3 receptors (Homo sapiens), showed pEC50 of 5.07

The molecule `COC(=O)N1CCN(C(=O)[C@@H]2CN(c3ccc(=O)n(C)n3)C[C@H]2c2ccc(F)cc2F)CCC[C@H]1c1ccc(Cl)cc1` , tested on human MC3 receptors (Homo sapiens), showed pEC50 of 5.91

The molecule `CC(=O)N1CCN(C(=O)[C@@H]2CN(c3ccc(C#N)nn3)C[C@H]2c2ccc(Cl)cn2)CCC[C@H]1c1ccc(Cl)cc1` , tested on human MC3 receptors (Homo sapiens), showed pEC50 of 7.05

The molecule `COC(=O)N1CCN(C(=O)[C@@H]2CN(c3ccc(C#N)nn3)C[C@H]2c2ccc(OC)cc2F)CCC[C@@H]1c1ccc(Cl)cc1` , tested on human MC3 receptors (Homo sapiens), showed pEC50 of 6.83

The molecule `CCC(=O)N1CCN(C(=O)[C@@H]2CN(C(C)(C)C)C[C@H]2c2ccc(F)cc2F)CCC[C@H]1c1ccc(Cl)cc1` , tested on human MC3 receptors (Homo sapiens), showed pEC50 of 5.38

The molecule `COC(=O)N1CCN(C(=O)[C@@H]2CN(c3ccc(=O)n(C)n3)C[C@H]2c2ccc(OC)cc2F)CCC[C@H]1c1ccc(Cl)cc1` , tested on human MC3 receptors (Homo sapiens), showed pEC50 of 5.09

The molecule `CC(=O)N1CCN(C(=O)[C@@H]2CN(c3ccc4nncn4n3)C[C@H]2c2ccc(Cl)cn2)CCC[C@H]1c1ccc(Cl)cc1` , tested on human MC3 receptors (Homo sapiens), showed pEC50 of 6.52

The molecule `COC(=O)N1CCN(C(=O)[C@@H]2CN(c3ccc(=O)n(C)n3)C[C@H]2c2ccc(OC)cc2F)CCC[C@@H]1c1ccc(Cl)cc1` , tested on human MC3 receptors (Homo sapiens), showed pEC50 of 4.95

The molecule `COc1ccc([C@@H]2CN(c3ccc(=O)n(C)n3)C[C@H]2C(=O)N2CCC[C@@H](c3ccc(Cl)cc3)N(C(=O)C(C)C)CC2)c(F)c1` , tested on human MC3 receptors (Homo sapiens), showed pEC50 of 6.39
